- Target system: human Cot catalytic domain (30-397 amino acids) (Homo sapiens, UniProt P41279)
- Construct: Purified recombinant human Cot catalytic domain (30-397 amino acids) was purchased from Cama Biosciences; purchased Cama Biosciences (so in the source)
- Sequence (P41279 30-397): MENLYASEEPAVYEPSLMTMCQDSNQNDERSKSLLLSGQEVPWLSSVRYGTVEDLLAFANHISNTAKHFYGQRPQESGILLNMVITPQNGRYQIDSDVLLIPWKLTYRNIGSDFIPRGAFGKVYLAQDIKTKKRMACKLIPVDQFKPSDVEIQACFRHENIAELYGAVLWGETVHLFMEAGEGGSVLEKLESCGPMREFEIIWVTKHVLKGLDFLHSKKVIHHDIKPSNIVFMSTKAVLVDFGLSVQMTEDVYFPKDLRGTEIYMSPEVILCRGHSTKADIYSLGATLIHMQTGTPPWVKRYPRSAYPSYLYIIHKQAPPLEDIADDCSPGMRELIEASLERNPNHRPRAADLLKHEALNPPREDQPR
- Protocol: High Throughput Cot Biochemical Assay (KinEASE TR-FRET)
- Details: Cot KinEASE TR-FRET, 400 μM ATP; read-out: IC50 HTRF
Property: IC50 (nM)

These recorded examples may help you get a feel for the data.
Compound: Cc1c([C@H](Nc2cc(C#N)c3ncc(C#N)c(NCC(C)(C)C)c3c2)c2cn(C3(C(F)F)CC3)nn2)cccc1-n1cncn1
Property: IC50
Unit tag: nM
Endpoint result: 1

Compound: CC(C)(C)N1CCC(n2cc([C@@H](Nc3cc(Cl)c4ncc(C#N)c(Nc5cncc(F)c5)c4c3)c3ccc(Cl)cc3)nn2)CC1
Property: IC50
Unit tag: nM
Endpoint result: 93

Compound: Cc1c(C#N)cccc1[C@H](Nc1cc(C#N)c2ncc(C#N)c(NCC(C)(C)C)c2c1)c1cn(C2(C(F)F)CC2)nn1
Property: IC50
Unit tag: nM
Endpoint result: 2

Compound: N#CCC[C@@H](Nc1c(C#N)cnc2c(C#N)cc(N[C@@H](c3ccccc3)c3cn(C4CC4)nn3)cc12)c1ccccc1
Property: IC50
Unit tag: nM
Endpoint result: 1

Compound: N#Cc1cnc2c(Cl)cc(NC(c3cc(C(F)(F)F)cc(C(F)(F)F)c3)c3cn(C4CCNCC4)nn3)cc2c1Nc1ccc(F)c(Cl)c1 (stereo not shown)
Property: IC50
Unit tag: nM
Endpoint result: 97

Compound: N#Cc1cnc2c(Cl)cc(N[C@@H](c3ccc(F)cc3)c3cn(C4CC4)nn3)cc2c1NCC12CC(C1)C2
Property: IC50
Unit tag: nM
Endpoint result: 34

(I) CC(C)(C)CNc1c(C#N)cnc2c(Cl)cc(N[C@@H](c3cccc(-n4ccnc4)c3)c3cn(C4CC4)nn3)cc12
(II) CC(C)(C)CNc1c(C#N)cnc2c(C#N)cc(N[C@@H](c3ccc(F)cc3)c3cn(C4(CO)CC4)nn3)cc12
[in] Parameter check: reported IC50 is higher for which label, I or II ? Kindly give the label for the entry you pick.
[out] II

* * *

- Target system: human Cot catalytic domain (30-397 amino acids) (Homo sapiens, UniProt P41279)
- Construct: Purified recombinant human Cot catalytic domain (30-397 amino acids) was purchased from Cama Biosciences; purchased Cama Biosciences (so in the source)
- Protocol: High Throughput Cot Biochemical Assay (KinEASE TR-FRET)
- Details: Cot KinEASE TR-FRET, 400 μM ATP; read-out: IC50 HTRF
Property: IC50 (µM)

These recorded examples may help you get a feel for the data.
Compound: CCN1CC(n2cc(C(Nc3cc(Cl)c4ncc(C#N)c(Nc5ccc(F)c(Cl)c5)c4c3)c3ccc(F)cc3)nn2)C1 (stereo not shown)
IC50 / µM: 0.027

Compound: CC(C)(C)n1cc([C@@H](Nc2cc(Cl)c3ncc(C#N)c(Nc4ccc(F)c(Cl)c4)c3c2)c2ccc(F)cc2)nn1
IC50 / µM: 0.034

Compound: Cn1cc(C(Nc2cc(Cl)c3ncc(C#N)c(Nc4ccc(F)c(Cl)c4)c3c2)c2ccc(F)c(F)c2)nn1 (stereo not shown)
IC50 / µM: 0.03

(I) CNC(=O)c1cc([C@H](Nc2cc(Cl)c3ncc(C#N)c(NCC(C)(C)C)c3c2)c2cn(C3(C(F)(F)F)CC3)nn2)ccc1F
(II) Cc1c(-c2ncco2)cccc1[C@H](Nc1cc(Cl)c2ncc(C#N)c(NCC(C)(C)C)c2c1)c1cn(C2(C(F)(F)F)CC2)nn1
[in] Parameter check: reported IC50 is higher for which label, I or II ? Kindly give the label for the entry you pick.
[out] I

(I) Cc1c(C#N)cccc1[C@H](Nc1cc(Cl)c2ncc(C#N)c(NCC(C)(C)C)c2c1)c1cn(C2(C)CC2)nn1
(II) Cc1c(C#N)cccc1[C@H](Nc1cc(Cl)c2ncc(C#N)c(NCC(C)(C)C)c2c1)c1cn(C2(C3CC3)CC2)nn1
(III) CC(C)(C)N1CCC(n2cc([C@@H](Nc3cc(Cl)c4ncc(C#N)c(Nc5ccc(F)c(Br)c5)c4c3)c3ccc(Cl)cc3)nn2)CC1
(IV) Cc1c(C#N)cccc1[C@H](Nc1cc(Cl)c2ncc(C#N)c(NCC(C)(C)C)c2c1)c1cn(C2(C(N)=O)CCC2)nn1
(V) [2H][C@](Nc1cc(Cl)c2ncc(C#N)c(Nc3cccc(Cl)c3C#N)c2c1)(c1ccc(F)cc1)c1cn(C2CC2)nn1
[in] // ranking: key=IC50, reverse=True List the labels according to the requested ordering.
[out] V, III, II, I, IV

* * *

- Target system: human Cot catalytic domain (30-397 amino acids) (Homo sapiens, UniProt P41279)
- Construct: Purified recombinant human Cot catalytic domain (30-397 amino acids) was purchased from Cama Biosciences; purchased Cama Biosciences (so in the source)
- Protocol: High Throughput Cot Biochemical Assay (KinEASE TR-FRET)
- Details: Cot KinEASE TR-FRET (HTRF) biochemical assay, 400 μM ATP; read-out: IC50 HTRF
Property: IC50 (nM)

These recorded examples may help you get a feel for the data.
Compound: [2H][C@](Nc1cc(F)c2ncc(C#N)c(N[C@H](CC)c3ccccc3)c2c1)(c1cccc(C#N)c1)c1cn(C2CC2)nn1
Property: IC50
Endpoint result: 3

Compound: Cn1cc([C@@H](Nc2cc(Cl)c3ncc(C#N)c(Nc4cnc(F)c(F)c4)c3c2)c2ccccc2F)nn1
Property: IC50
Endpoint result: 10

Compound: [2H][C@](Nc1cc(Cl)c2ncc(C#N)c(NCC3(C)CCOCC3)c2c1)(c1ccc(F)cc1)c1cn(C2CC2)nn1
Property: IC50
Endpoint result: 9

Compound: [2H][C@](Nc1cc(Cl)c2ncc(C#N)c(NCC(Cl)(Cl)Cl)c2c1)(c1ccc(F)cc1)c1cn(C2CC2)nn1
Property: IC50
Endpoint result: 56

Compound: CC(C)(C)N1CCC(n2cc([C@@H](Nc3cc(Cl)c4ncc(C#N)c(Nc5ccc(F)c(Cl)c5)c4c3)c3cccc(N)c3)nn2)CC1
Property: IC50
Endpoint result: 6

Compound: [2H][C@](Nc1cc(Cl)c2ncc(C#N)c(N[C@@H]3C[C@H]3CC)c2c1)(c1ccc(F)cc1)c1cn(C2CC2)nn1
Property: IC50
Endpoint result: 36

Compound: [2H][C@](Nc1cc(Cl)c2ncc(C#N)c(NC34CC5CC(CC(C5)C3)C4)c2c1)(c1ccc(F)cc1)c1cn(C2CC2)nn1
Property: IC50
Endpoint result: 46

Compound: [2H][C@](Nc1cc(Cl)c2ncc(C#N)c(N[C@H](c3ccccc3)[C@@H]3C[C@H]3C#N)c2c1)(c1ccc(F)cc1)c1cn(C2CC2)nn1
Property: IC50
Endpoint result: 7890

Compound: [2H][C@](Nc1cc(Br)c2ncc(C#N)c(NCC(C)(C)C)c2c1)(c1ccc(F)cc1)c1cn(C2CC2)nn1
Property: IC50
Endpoint result: 10

Compound: N#Cc1cnc2c(Cl)cc(N[C@@H](c3ccc(F)cc3)c3cn(C(F)F)nn3)cc2c1Nc1cnc(F)c(F)c1
Property: IC50
Endpoint result: 495

(a) [2H][C@](Nc1cc(Cl)c2ncc(C#N)c(NC3CCOC(C)(C)C3)c2c1)(c1ccc(F)cc1)c1cn(C2CC2)nn1 (some centres unmarked)
(b) [2H][C@](Nc1cc(Br)c2ncc(C#N)c(N[C@H](CC)c3ccccc3)c2c1)(c1ccc(F)cc1)c1cn(C2CC2)nn1
[in] Compare IC50: is it lower for a or for b ? Kindly give the label for the entry you pick.
[out] b
(b: 6 nM, a: 106 nM)

* * *

- Target system: human Cot catalytic domain (30-397 amino acids) (Homo sapiens, UniProt P41279)
- Construct: Purified recombinant human Cot catalytic domain (30-397 amino acids) was purchased from Cama Biosciences; purchased Cama Biosciences (so in the source)
- Protocol: High Throughput Cot Biochemical Assay (KinEASE TR-FRET)
- Details: Cot KinEASE TR-FRET, 400 μM ATP; read-out: IC50 HTRF
Property: IC50 (nM)

Molecule: CCN1CC[C@@H](n2cc(C(Nc3cc(Cl)c4ncc(C#N)c(Nc5ccc(F)c(Cl)c5)c4c3)c3ccc(Cl)cc3)nn2)C1 (stereo partly shown)
Property: IC50
Endpoint result: 119
--
Molecule: CC(C)(C)CNc1c(C#N)cnc2c(C#N)cc(N[C@H](c3cn(C4(C#N)CC4)nn3)c3cccc(C#N)c3Cl)cc12
Property: IC50
Endpoint result: 4
--
Molecule: CC(C)(C)CNc1c(C#N)cnc2c(C#N)cc(N[C@H](c3cn(C4(C(F)(F)F)CC4)nn3)c3cccc(C#N)c3Cl)cc12
Property: IC50
Endpoint result: 19
--
Molecule: CC(C)(C)N1CCC(n2cc([C@@H](Nc3cc(Cl)c4ncc(C#N)c(Nc5cccc(C(F)F)c5)c4c3)c3ccc(Cl)cc3)nn2)CC1
Property: IC50
Endpoint result: 484
--
Molecule: Cc1c(C#N)cccc1[C@H](Nc1cc(C#N)c2ncc(C#N)c(NCC(C)(C)C)c2c1)c1cn(C2(C(F)(F)F)CC2)nn1
Property: IC50
Endpoint result: 3
--
Molecule: Cn1cc(C(Nc2cc(Cl)c3ncc(C#N)c(Nc4ccc(F)c(Cl)c4)c3c2)c2cccc(C3OCCO3)c2)nn1 (stereo not shown)
Property: IC50
Endpoint result: 12
--
Molecule: Cc1c(-c2cc[nH]n2)cccc1[C@H](Nc1cc(C#N)c2ncc(C#N)c(NCC(C)(C)C)c2c1)c1cn(C2(C(F)(F)F)CC2)nn1
Property: IC50
Endpoint result: 8
--
Molecule: Cc1nnc(C2(n3cc([C@@H](Nc4cc(Cl)c5ncc(C#N)c(NCC(C)(C)C)c5c4)c4ccccc4Cl)nn3)CC2)o1
Property: IC50
Endpoint result: 26

(a) N#Cc1cnc2c(Cl)cc(NC(c3ccc(F)cc3)c3c[nH]nn3)cc2c1Nc1ccc(F)c(Cl)c1 (stereo not shown)
(b) Cc1c(-c2ccncc2)cccc1[C@H](Nc1cc(Cl)c2ncc(C#N)c(NCC(C)(C)C)c2c1)c1cn(C2(C(F)F)CC2)nn1
(c) CCN1CCC(n2cc(C(Nc3cc(Cl)c4ncc(C#N)c(Nc5ccc(F)c(Cl)c5)c4c3)c3ccc(Cl)cc3)nn2)CC1 (stereo not shown)
(d) Cc1c(F)cccc1[C@H](Nc1cc(Cl)c2ncc(C#N)c(NCC(C)(C)C)c2c1)c1cn(C2(C(F)(F)F)CC2)nn1
[in] Sort the molecules on IC50; start with the lowest figure. List the labels according to the requested ordering.
[out] b, c, a, d
